Entries and their EC50
Molecular target: Human GLP-1 receptor (Homo sapiens, UniProt P43220)
Construct: expressed in transfected cells
Sequence (P43220 24-463): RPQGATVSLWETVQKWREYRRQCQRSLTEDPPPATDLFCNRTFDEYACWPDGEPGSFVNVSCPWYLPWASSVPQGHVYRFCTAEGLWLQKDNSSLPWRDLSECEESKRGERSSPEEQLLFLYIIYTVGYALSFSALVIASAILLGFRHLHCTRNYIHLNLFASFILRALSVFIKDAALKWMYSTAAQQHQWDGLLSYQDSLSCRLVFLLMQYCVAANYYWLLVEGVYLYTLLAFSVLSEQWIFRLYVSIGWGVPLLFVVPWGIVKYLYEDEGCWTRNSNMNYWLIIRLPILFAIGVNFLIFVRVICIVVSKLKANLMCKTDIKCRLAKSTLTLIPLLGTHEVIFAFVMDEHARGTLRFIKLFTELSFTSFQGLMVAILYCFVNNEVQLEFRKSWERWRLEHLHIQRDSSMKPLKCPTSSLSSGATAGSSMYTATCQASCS
Assay: Measurement of GLP-1 receptor agonist activity (cAMP assay)
Assay type: cell-based
Conditions: hGLP-1R/CHO-K1 cells, cAMP increase, 37° C. 1 hour
API: value field is a number in nM; no unit string.

                                        mol  experimental_endpoint  unit_string  value
0  O=C(O)c1ccc2nc(CN3CCc4cc(C(F)(F)F)c(OCc5ccc(OC(F)F)c(F)c5)cc4C3)n(C[C@@H]3CCO3)c2c1                   EC50           nM   25.3
1  C[C@H]1c2cc(OCc3ccc(F)cc3F)c(C(F)(F)F)cc2CCN1Cc1nc2c(F)cc(C(=O)O)cc2n1C[C@@H]1CCO1                   EC50           nM  0.434
2  Cc1cc2c(cc1OCc1ccc(F)cc1F)CN(Cc1nc3ccc(C(=O)O)cc3n1C[C@@H]1CCO1)CC2                   EC50           nM   94.6
3  Cc1cc2c(cc1OCc1ccc(Cl)cc1F)CN(Cc1nc3ccc(C(=O)O)cc3n1C[C@@H]1CCO1)CC2                   EC50           nM   47.5
4  O=C(O)c1ccc2nc(CN3CCc4cc(C(F)(F)F)c(OCc5ncc(Cl)cc5F)cc4C3)n(C[C@@H]3CCO3)c2c1                   EC50           nM   3.54

Form field EC50, entry C[C@H]1c2cc(OCc3ccc(OC(F)F)cc3F)c(C(F)(F)F)cc2CCN1Cc1nc2ccc(C(=O)O)nc2n1C[C@@H]1CCO1 : 4.75
